measured.target: T1, P-cadherin-ECD1-3-Fc protein (human P-cadherin-Fc) (human, UniProt P22223 108-440)
T1 construct: Construct was expressed with signal peptide and pro-peptide (PACE co-transfected to process the propeptide); not shown: hinge and CH2 and CH3 domains of human IgG1
T1 sequence (P22223 108-440): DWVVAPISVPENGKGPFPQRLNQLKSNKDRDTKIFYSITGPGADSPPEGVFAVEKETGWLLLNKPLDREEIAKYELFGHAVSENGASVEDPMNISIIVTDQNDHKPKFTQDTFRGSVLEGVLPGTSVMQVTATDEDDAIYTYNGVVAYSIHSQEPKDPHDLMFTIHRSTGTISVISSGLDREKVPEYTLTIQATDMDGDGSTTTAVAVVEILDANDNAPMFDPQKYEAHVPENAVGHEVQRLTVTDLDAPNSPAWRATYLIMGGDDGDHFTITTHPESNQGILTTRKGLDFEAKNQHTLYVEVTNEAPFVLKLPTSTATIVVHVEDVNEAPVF
experimental.details: phage scFv ELISA, coated P-cadherin-ECD1-3-Fc
measured.attribute: Human P-cadherin-Fc binding (OD450)
Give bare numbers, in OD450.

These recorded examples may help you get a feel for the data.
binder	Human P-cadherin-Fc binding (OD450)
anti-P-cadherin scFv 153 alanine-mutant H2.16-Ala (scFv, V domains shown, scFv on phage) VH: EVQLVQSGAEVKKPGASVKVSCKASGYTFTSYGISWVRQAPGQGLEWMGWISAYNGNTNYAQKLAGRVTMTTDTSTSTAYMELRSLRSDDTAVYYCATIDTANAFGIWGQGTMVTVSS VL: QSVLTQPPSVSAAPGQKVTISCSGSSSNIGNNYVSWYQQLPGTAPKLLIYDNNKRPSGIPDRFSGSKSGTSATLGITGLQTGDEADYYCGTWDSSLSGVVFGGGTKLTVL	0.9
anti-P-cadherin scFv 153 alanine-mutant H3.9-Ala (scFv, V domains shown, scFv on phage) VH: EVQLVQSGAEVKKPGASVKVSCKASGYTFTSYGISWVRQAPGQGLEWMGWISAYNGNTNYAQKLQGRVTMTTDTSTSTAYMELRSLRSDDTAVYYCATIDTANAFGAWGQGTMVTVSS VL: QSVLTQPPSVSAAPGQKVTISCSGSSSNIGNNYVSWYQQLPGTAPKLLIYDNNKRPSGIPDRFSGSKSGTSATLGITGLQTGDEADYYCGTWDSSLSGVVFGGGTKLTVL	0.8

Provide the reported Human P-cadherin-Fc binding (OD450) of each entry below, same order.
1. anti-P-cadherin scFv 153 alanine-mutant H2.9-Ala (scFv, V domains shown, scFv on phage) VH: EVQLVQSGAEVKKPGASVKVSCKASGYTFTSYGISWVRQAPGQGLEWMGWISAYNGNANYAQKLQGRVTMTTDTSTSTAYMELRSLRSDDTAVYYCATIDTANAFGIWGQGTMVTVSS VL: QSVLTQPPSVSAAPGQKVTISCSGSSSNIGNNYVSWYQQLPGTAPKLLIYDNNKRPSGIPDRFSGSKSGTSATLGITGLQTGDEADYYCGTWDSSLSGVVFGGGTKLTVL
2. anti-P-cadherin scFv 153 alanine-mutant H2.14-Ala (scFv, V domains shown, scFv on phage) VH: EVQLVQSGAEVKKPGASVKVSCKASGYTFTSYGISWVRQAPGQGLEWMGWISAYNGNTNYAQALQGRVTMTTDTSTSTAYMELRSLRSDDTAVYYCATIDTANAFGIWGQGTMVTVSS VL: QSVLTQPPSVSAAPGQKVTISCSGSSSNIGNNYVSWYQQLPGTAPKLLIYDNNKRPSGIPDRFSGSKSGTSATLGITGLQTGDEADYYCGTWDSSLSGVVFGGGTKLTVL
3. anti-P-cadherin scFv 153 (parental clone 153), displayed on phage (scFv, V domains shown, scFv expressed on the surface of phage) VH: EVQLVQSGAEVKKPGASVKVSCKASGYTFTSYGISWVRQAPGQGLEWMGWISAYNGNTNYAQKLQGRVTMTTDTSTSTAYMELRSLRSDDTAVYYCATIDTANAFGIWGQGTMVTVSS VL: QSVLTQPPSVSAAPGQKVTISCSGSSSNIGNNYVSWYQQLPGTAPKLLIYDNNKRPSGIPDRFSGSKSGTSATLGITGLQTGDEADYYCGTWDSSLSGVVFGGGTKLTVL
4. anti-P-cadherin scFv 153 alanine-mutant H2.3-Ala (scFv, V domains shown, scFv on phage) VH: EVQLVQSGAEVKKPGASVKVSCKASGYTFTSYGISWVRQAPGQGLEWMGWIAAYNGNTNYAQKLQGRVTMTTDTSTSTAYMELRSLRSDDTAVYYCATIDTANAFGIWGQGTMVTVSS VL: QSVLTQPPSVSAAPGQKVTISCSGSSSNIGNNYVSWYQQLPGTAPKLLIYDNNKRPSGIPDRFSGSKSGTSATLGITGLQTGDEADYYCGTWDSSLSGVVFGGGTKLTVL
5. anti-P-cadherin scFv 153 alanine-mutant H1.8-Ala (scFv, V domains shown, scFv on phage) VH: EVQLVQSGAEVKKPGASVKVSCKASGYTFTSYAISWVRQAPGQGLEWMGWISAYNGNTNYAQKLQGRVTMTTDTSTSTAYMELRSLRSDDTAVYYCATIDTANAFGIWGQGTMVTVSS VL: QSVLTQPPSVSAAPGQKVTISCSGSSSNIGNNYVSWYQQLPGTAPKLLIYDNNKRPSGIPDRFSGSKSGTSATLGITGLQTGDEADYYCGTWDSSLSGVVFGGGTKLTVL
6. anti-P-cadherin scFv 153 alanine-mutant H1.2-Ala (scFv, V domains shown, scFv on phage) VH: EVQLVQSGAEVKKPGASVKVSCKASGATFTSYGISWVRQAPGQGLEWMGWISAYNGNTNYAQKLQGRVTMTTDTSTSTAYMELRSLRSDDTAVYYCATIDTANAFGIWGQGTMVTVSS VL: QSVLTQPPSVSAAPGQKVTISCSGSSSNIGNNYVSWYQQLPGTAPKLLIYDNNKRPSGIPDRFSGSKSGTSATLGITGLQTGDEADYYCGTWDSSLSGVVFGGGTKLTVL
7. anti-P-cadherin scFv 153 alanine-mutant H1.9-Ala (scFv, V domains shown, scFv on phage) VH: EVQLVQSGAEVKKPGASVKVSCKASGYTFTSYGASWVRQAPGQGLEWMGWISAYNGNTNYAQKLQGRVTMTTDTSTSTAYMELRSLRSDDTAVYYCATIDTANAFGIWGQGTMVTVSS VL: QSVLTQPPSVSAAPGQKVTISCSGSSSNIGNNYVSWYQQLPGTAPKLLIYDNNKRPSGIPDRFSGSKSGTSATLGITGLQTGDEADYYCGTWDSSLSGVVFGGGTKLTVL

Response given:
[2.03, 1.54, 1.32, 1.83, 0.36, 2.36, 2.21]
